A compilation of published IC50 results with 72 kDa type IV collagenase (Homo sapiens).
Sequence (P08253 whole entry): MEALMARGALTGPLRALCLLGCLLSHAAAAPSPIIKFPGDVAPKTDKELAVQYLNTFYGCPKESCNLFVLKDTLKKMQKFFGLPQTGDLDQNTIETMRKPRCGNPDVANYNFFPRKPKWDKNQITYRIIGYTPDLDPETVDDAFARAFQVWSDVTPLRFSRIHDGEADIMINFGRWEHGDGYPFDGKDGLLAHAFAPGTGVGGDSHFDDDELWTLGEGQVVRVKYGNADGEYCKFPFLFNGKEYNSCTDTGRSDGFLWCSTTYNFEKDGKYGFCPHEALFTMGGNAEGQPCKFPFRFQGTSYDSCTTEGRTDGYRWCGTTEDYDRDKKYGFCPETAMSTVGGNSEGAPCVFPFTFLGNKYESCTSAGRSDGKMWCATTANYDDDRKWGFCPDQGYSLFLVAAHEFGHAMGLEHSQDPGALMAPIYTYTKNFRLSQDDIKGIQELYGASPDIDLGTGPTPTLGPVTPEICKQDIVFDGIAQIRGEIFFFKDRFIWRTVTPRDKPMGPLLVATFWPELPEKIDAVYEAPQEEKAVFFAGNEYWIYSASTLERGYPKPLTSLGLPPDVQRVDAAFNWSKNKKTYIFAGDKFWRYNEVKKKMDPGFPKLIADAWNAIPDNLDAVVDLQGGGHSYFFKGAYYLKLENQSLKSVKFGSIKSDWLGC
measured.quantity: IC50 (nM)

>>> observed_measurement("COC(=O)[C@@H]1C[C@@H](OC(=O)c2ccccc2)CN1S(=O)(=O)c1ccc(C)cc1")
3200
>>> observed_measurement("COC(=O)[C@@H]1C[C@H](N=[N+]=[N-])CN1C(C)=O")
2600
>>> observed_measurement("COc1cc(C(=O)N[C@H](CCC(=O)O)C(=O)NCc2ccc(Cl)cc2F)cc(OC)c1OC")
52800

1 = Cc1ccc(S(=O)(=O)N2CC3(C[C@H]2C(=O)N/N=C/c2ccccc2Cl)SCCS3)cc1
2 = COc1ccc(S(=O)(=O)N2CCCCCSC(C)(C)[C@@H]2C(=O)NO)cc1
// compare measured IC50, left 1 , right 2 , return larger Answer by stating the label of the chosen item. 1
